# Test system: HPV-16
# method_summary: qPCR sensitivity against HPV-HNSCC tumor samples diluted among 10 ng normal human DNA
# condition_details: Sample # 24
endpoint_name: Threshold of tumor cell numbers for HPV-16 detection (tumor cells)
State just the number; it will be interpreted in tumor cells.

Reference set, count: 2
[
  {
    "molecule": "BR E1-4: HPV-16 E1 region primer/probe set, SEQ ID NO: 37-39 (nucleic acid, chemistry not given here) DNA 1: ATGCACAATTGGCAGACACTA DNA 2: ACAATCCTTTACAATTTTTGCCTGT DNA 3: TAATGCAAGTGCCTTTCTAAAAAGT",
    "reported_measurement": 0.6
  },
  {
    "molecule": "BR E1-6: HPV-16 E1 region primer/probe set, SEQ ID NO: 43-45 (nucleic acid, chemistry not given here) DNA 1: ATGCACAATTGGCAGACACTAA DNA 2: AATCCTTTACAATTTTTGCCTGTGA DNA 3: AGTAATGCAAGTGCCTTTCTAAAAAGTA",
    "reported_measurement": 1.2
  }
]

Lab note: next molecule to report on.
The molecule identified as HR E5L2-4: primer/probe set for junction between E5 and L2, SEQ ID NO: 55-57 (same as SEQ ID NO: 4-6) (nucleic acid, chemistry not given here) DNA 1: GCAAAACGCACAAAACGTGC DNA 2: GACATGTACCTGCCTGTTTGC DNA 3: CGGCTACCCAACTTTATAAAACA registered its Threshold of tumor cell numbers for HPV-16 detection at 1.2
